# target_or_test_system: UniProtKB Q9BY41
# Sequence (Q9BY41 whole entry, the tested form may be a part): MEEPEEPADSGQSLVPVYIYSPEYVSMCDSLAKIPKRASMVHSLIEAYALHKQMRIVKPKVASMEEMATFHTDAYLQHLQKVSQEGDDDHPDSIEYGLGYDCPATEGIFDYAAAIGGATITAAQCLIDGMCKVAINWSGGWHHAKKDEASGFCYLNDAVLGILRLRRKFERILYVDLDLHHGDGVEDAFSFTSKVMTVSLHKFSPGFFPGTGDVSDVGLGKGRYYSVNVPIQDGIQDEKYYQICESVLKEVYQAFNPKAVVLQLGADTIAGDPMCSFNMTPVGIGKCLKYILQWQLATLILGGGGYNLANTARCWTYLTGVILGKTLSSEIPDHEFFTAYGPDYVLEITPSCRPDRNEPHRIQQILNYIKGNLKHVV
# experimental_details: Inhibition of C-terminal His-tagged recombinant human HDAC8 (1 to 377 residues) expressed in baculovirus infected Sf9 insect cells using Boc-Lys(TFA)-AMC as substrate preincubated for 5 mins followed by substrate addition measured after 30 mins by fluorescence assay
Could you please report measured pIC50 for the items listed next?
Numbers only, as −log10 of the molar value.

COc1cc2ccn(CCCCOc3cccc(NC(=O)CCCCCCC(=O)NO)c3)c2c(OC)c1OC : 6.12

Please turn your attention to the following entry.
Give the measured pIC50 for "COc1cc2ccn(CCOc3cccc(NC(=O)CCCCCCC(=O)NO)c3)c2c(OC)c1OC"
6.38

###

# target_or_test_system: Histone deacetylase 5 (Homo sapiens, UniProt Q9UQL6)
# Sequence (Q9UQL6 whole entry): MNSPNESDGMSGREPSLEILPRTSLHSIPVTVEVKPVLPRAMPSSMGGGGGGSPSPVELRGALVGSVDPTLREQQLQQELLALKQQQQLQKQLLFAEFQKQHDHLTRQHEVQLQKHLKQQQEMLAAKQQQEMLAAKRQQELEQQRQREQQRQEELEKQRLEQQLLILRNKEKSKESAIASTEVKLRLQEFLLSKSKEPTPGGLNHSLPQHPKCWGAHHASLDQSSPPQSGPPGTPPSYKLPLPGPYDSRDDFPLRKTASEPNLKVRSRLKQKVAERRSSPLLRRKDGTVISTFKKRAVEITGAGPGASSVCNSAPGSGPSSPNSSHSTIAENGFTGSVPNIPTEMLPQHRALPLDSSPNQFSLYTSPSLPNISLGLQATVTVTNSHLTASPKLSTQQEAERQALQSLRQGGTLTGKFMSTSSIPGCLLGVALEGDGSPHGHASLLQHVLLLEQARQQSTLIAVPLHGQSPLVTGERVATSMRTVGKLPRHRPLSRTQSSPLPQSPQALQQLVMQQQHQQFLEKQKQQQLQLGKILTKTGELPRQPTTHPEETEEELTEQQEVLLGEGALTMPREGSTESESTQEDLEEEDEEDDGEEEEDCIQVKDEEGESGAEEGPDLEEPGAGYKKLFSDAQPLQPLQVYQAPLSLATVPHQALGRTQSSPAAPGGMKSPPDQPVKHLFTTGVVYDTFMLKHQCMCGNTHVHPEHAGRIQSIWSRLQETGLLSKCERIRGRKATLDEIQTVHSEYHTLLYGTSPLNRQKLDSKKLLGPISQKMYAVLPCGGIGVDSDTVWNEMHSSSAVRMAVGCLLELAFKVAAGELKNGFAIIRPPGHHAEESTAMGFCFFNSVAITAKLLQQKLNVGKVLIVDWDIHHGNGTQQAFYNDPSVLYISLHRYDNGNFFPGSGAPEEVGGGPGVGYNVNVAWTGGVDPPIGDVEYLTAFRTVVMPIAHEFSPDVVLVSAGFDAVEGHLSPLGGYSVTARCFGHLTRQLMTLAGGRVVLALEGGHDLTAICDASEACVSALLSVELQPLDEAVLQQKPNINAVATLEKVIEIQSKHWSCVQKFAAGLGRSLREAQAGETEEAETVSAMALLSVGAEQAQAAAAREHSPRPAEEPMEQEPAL
# experimental_details: Inhibition of full length recombinant human HDAC5 preincubated for 5 mins followed by substrate addition measured after 30 mins by fluorescence assay
Answer each item with its documented IC50.

State recorded IC50 for all listed compounds.
1. COc1cc2ccn(CCCCOc3cccc(NC(=O)CCCCCCC(=O)NO)c3)c2c(OC)c1OC
2. COc1cc2ccn(CCOc3cccc(NC(=O)CCCCCCC(=O)NO)c3)c2c(OC)c1OC

> 10 µM
> 10 µM

###

# target_or_test_system: Histone deacetylase 2 (Homo sapiens, UniProt Q92769)
# Sequence (Q92769 whole entry): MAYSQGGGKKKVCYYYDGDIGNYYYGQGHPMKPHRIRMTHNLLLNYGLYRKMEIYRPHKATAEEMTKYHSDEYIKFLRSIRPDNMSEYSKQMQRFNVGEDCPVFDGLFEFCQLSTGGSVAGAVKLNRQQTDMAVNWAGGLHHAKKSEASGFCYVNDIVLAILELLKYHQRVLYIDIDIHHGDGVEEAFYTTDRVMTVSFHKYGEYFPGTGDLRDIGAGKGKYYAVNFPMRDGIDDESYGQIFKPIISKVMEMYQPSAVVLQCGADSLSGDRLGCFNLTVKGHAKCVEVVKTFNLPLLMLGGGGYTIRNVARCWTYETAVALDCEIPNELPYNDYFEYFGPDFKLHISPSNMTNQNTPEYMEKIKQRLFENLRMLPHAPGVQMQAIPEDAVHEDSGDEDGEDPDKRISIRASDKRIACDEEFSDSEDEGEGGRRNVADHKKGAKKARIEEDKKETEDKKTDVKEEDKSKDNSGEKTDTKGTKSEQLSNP
# experimental_details: biochemical
# Description: Inhibition of full length recombinant human HDAC2 expressed in baculovirus infected Sf9 insect cells using KI 177 as substrate preincubated for 5 mins followed by substrate addition measured after 30 mins by fluorescence assay
quantity_kind: pIC50
Answers are plain numbers, as −log10 of the molar value.

Each of the following entries comes with a recorded value; kindly state pIC50 for each.
1. COc1cc2ccn(CCCCOc3cccc(NC(=O)CCCCCCC(=O)NO)c3)c2c(OC)c1OC
2. COc1cc2ccn(CCOc3cccc(NC(=O)CCCCCCC(=O)NO)c3)c2c(OC)c1OC

6.00
6.95

###

# target_or_test_system: Protein deacetylase HDAC6 (Homo sapiens, UniProt Q9UBN7)
# Sequence (Q9UBN7 whole entry): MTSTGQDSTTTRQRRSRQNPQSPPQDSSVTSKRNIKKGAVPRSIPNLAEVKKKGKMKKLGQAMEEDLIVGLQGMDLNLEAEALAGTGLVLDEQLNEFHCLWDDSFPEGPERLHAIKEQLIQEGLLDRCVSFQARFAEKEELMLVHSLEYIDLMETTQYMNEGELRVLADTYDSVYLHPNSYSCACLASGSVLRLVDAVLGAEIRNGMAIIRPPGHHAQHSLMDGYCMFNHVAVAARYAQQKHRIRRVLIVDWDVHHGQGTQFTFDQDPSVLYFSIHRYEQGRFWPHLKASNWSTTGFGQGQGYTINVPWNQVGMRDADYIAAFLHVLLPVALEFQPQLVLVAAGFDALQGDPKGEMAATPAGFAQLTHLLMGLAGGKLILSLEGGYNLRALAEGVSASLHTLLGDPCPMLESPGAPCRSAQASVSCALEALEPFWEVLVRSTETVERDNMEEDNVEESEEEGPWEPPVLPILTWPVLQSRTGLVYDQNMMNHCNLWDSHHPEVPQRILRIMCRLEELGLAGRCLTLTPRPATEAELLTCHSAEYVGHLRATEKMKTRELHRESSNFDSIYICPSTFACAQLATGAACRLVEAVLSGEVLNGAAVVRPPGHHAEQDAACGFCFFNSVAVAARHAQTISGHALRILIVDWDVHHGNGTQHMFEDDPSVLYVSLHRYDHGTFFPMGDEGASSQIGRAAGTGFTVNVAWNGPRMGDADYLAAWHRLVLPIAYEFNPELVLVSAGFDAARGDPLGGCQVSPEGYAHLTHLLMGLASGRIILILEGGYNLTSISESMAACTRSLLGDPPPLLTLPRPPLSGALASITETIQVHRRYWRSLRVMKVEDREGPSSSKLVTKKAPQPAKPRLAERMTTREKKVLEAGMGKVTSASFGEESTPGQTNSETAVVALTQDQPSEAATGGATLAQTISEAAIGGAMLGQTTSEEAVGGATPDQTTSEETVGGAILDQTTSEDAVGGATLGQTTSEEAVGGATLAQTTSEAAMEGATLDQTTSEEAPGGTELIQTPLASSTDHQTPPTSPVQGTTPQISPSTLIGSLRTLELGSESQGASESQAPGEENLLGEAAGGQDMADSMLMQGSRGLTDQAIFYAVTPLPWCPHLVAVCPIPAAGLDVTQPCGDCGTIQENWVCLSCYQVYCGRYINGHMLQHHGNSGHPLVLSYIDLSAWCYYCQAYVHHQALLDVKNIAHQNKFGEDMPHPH
# experimental_details: Inhibition of N-terminal GST-tagged human HDAC6 using Boc-Lys(Ac)-AMC as substrate preincubated for 5 mins followed by substrate addition measured after 30 mins by fluorescence assay
quantity_kind: pIC50
One number for each entry, as −log10 of the molar value.

Tell us which pIC50 value is on record for "COc1cc2ccn(CCOc3cccc(NC(=O)CCCCCCC(=O)NO)c3)c2c(OC)c1OC"
8.02
